- Tested on: MDA-MB-435
- experiment.summary: NCI tumour cell line growth inhibition, 48 h
TGI vs 20 µM: at or above is 1, below is -1.

Worked set:
CCOC(=O)[C@@]1(C)CC(O)C(=O)N1C (some centres not stated): 1
O=[N+]([O-])c1cc2ccc(N(CCO)CCO)nc2nc1N(CCO)CCO: 1
N/C(=N\Nc1ccc(Cl)cc1)c1cnccn1: 1
COC(=O)c1cn(CC(O)CCl)nn1 (configuration not stated): 1
COC1=C(Cl)C(=O)c2c(O)ccc(O)c2C1=O: -1

Task: Given CCCCCC[C@@H](C)NC(=O)c1ccc(Nc2nc3ccccc3c3occc23)cc1 , state whether its TGI is at least 20 µM.
Output: 1

Task: Decide: is the reported value of TGI for O=C(N/N=C\c1cccc2ccccc12)Nc1cccc2ccccc12 equal to or greater than 20 µM?
Output: 1

Task: Given the entry O=C1C=Cc2c1ccc1ccccc21 , answer whether its TGI meets or surpasses 20 µM.
Output: 1

Task: Record CC(=O)O[C@H]1C(=O)[C@@]2(C)[C@H]([C@H](OC(=O)c3ccccc3)[C@]3(O)C[C@H](OC(=O)[C@H](O)[C@@H](NC(=O)c4ccccc4)c4cccc(N(C)C)c4)C(C)=C1C3(C)C)[C@]1(OC(C)=O)CO[C@@H]1C[C@@H]2O ; criterion: TGI no lower than 20 µM. Met?
Output: -1

Task: For this compound, is measured TGI 20 µM or higher? O=C(c1ccco1)c1c(C(F)(F)F)n([O-])c2cc(C(F)(F)F)ccc2[n+]1=O
Output: -1

Task: # bool: TGI of C=C1C(=O)O[C@H]2[C@H]1CC/C(Cn1cc(-c3ccc(F)cc3)nn1)=C\CC[C@@]1(C)O[C@@H]21 >= 20 µM
Output: -1

Task: Check the entry Nn1c(=O)[nH]c2ncn(Cc3ccccc3)c2c1=O : does TGI equal or exceed 20 µM?
Output: 1

Task: Item Nc1nc(SCc2ccccc2Cl)cc(C(=O)O)n1 with TGI of 20 µM or above?
Output: 1

Task: Does CC1SC2(CCCCC2)N(NC(=O)CSc2nc3ccc(Cl)cc3c(=O)n2-c2ccccc2)C1=O (configuration not stated) have a reported TGI of at least 20 µM?
Output: 1

Task: Has COc1ccc2c(c1)NC1(CCN(CCCC(=O)c3ccc(F)cc3)CC1)N=N2 a recorded TGI greater than or equal to 20 µM?
Output: 1
